Source listed as patent US20250340608A1.

Molecular target: T1, human ferroportin (SLC40A1) fused in frame with GFP, stably expressed in HEK293 cells (human, UniProt Q9NP59 1-571)
T1 sequence (looked up): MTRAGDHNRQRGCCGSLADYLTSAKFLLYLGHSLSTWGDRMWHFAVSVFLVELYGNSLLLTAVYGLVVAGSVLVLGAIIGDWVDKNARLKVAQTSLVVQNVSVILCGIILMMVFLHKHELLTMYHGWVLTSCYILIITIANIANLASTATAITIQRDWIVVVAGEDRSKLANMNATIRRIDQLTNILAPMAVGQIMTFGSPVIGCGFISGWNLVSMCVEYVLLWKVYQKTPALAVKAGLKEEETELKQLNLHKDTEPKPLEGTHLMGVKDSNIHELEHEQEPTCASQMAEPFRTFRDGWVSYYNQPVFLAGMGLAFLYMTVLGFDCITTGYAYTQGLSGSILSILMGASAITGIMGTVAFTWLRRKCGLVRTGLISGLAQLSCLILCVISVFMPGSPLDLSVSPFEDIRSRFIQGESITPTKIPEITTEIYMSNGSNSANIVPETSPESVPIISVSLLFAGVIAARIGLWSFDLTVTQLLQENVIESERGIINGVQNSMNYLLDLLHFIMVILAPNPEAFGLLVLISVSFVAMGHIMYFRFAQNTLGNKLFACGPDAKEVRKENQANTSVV
Assay: cell-based or functional assay
Primed or numbered codes have the meaning given here. Side chains are listed from the residue outwards. * marks the point of attachment. PEG8′ = PEG8 conjugated to the Lys side chain; Palmitoyl = CCCCCCCCCCCCCCCC(=O)*; Isovaleryl = CC(C)CC(=O)*; PEG3′ = not defined here
Attribute measured: Potency EC50 (nM)

[[record]]
binder = "H-DTHFPICIFGPRSKAWVCM-NH2 (cysteine pairing not given here) [Compound 31]"
recorded_number = 175

[[record]]
binder = "H-DTHFPICIFGPRAKGWVCM-NH2 (cysteine pairing not given here) [Compound 16]"
recorded_number = 88

[[record]]
binder = "Isovaleryl-DTKFPCIIFGPRSKGWVCK-NH2 (cysteine pairing not given here) [Compound 147]"
recorded_number = 20

[[record]]
binder = "Isovaleryl-DTHFPCIKFGPRSKGWVCK(PEG8′)-NH2 (cysteine pairing not given here) [Compound 153]"
recorded_number = 18

[[record]]
binder = "Isovaleryl-DTHFPCIIFGPRSKGWCK-NH2 (not fully specified (bridges); cysteine pairing not given here) [Compound 113]"
recorded_number = 15


a. Isovaleryl-DTHFPCIK([PEG3′-Palmitoyl])FGPRSKGWVCK-NH2 (cysteine pairing not given here) [Compound 199]
b. H-DTHFPCISFGPRSKGWVCM-NH2 (cysteine pairing not given here) [Compound 135]
c. Isovaleryl-DTHFPCIKFGPK([PEG3′-Palmitoyl])SKGWVCK-NH2 (cysteine pairing not given here) [Compound 201]
Ask: Sort (3 binders) by Potency EC50: min first. In plain terms: list the labels in the order you were asked to.
Reply: c, a, b
